inhibition values, listed per item
- assay: growth suppression of yeast trafficking mutant, preliminary HTS, modulators of trafficking downstream of Golgi apparatus project, 1536-format plate, OD 615 nm (AID 637)
- conditionLabel: yeast transport mutant growth, absorbance 615 nm, 18 h; stronger effect = higher value
experimentalEndpoint: inhibition (%)

[[record]]
molecule = "O=C(NCCN1C(=O)C2C3C=CC(C3)C2C1=O)N1CCOCC1 (stereo unspecified)"
reportedmeasurement = -2.5

[[record]]
molecule = "CC(=O)Nc1cccc(Oc2nc(C)cc(C)c2C#N)c1"
reportedmeasurement = 0.5

[[record]]
molecule = "O=C(CC1Oc2ccc(Cl)cc2NC1=O)NC1CCCCCC1 (stereo unspecified)"
reportedmeasurement = 2.13

[[record]]
molecule = "Cc1c(C#N)c2ccccc2n1CC(=O)N1CCc2ccccc2C1"
reportedmeasurement = -3.17

[[record]]
molecule = "O=C(Nc1ccncc1)C1CCCN(S(=O)(=O)c2cccc3cccnc23)C1 (stereo unspecified)"
reportedmeasurement = 3.33

[[record]]
molecule = "CC(C)(C)NC(=O)Cn1c(=O)oc2ccc(Cl)cc21"
reportedmeasurement = 0.83

[[record]]
molecule = "Cc1nc2ccccc2c2oc(C(=O)N3CCC(N4CCCCC4)CC3)cc12"
reportedmeasurement = 0.17

[[record]]
molecule = "CC(NC(=O)C1CC1)C(c1cccs1)N1CCN(c2ccccc2)CC1 (stereo unspecified)"
reportedmeasurement = -5.57

[[record]]
molecule = "Cc1nnc(N(Cc2ccco2)C(=O)c2cccc(C#N)c2)s1"
reportedmeasurement = -6.35

[[record]]
molecule = "Cn1c(C(=O)Nc2ccc3c(c2)OCO3)cc2c(=O)n(C)c3ccccc3c21"
reportedmeasurement = 2

[[record]]
molecule = "CCOc1ccc(N(CC(=O)NCc2ccco2)S(=O)(=O)c2ccc(OC)c(OC)c2)cc1"
reportedmeasurement = -6.5


* * *

- assay: MRP1 drug-resistance reversers in H69AR cells – cell-based, doxorubicin co-treatment, pilot screen (AID 601)
- conditionLabel: H69AR cells + 2 uM doxorubicin, CellTiter-Glo, 72 h; measured here: viability with 2 uM doxorubicin; at 10 µM; stronger effect = lower value
viability values, listed per item
experimentalEndpoint: viability

[[record]]
compound = "CN1CCN(C2=C(Cl)C(=O)N(c3cccc(Cl)c3)C2=O)CC1"
reportedmeasurement = "80.5%"

[[record]]
compound = "COC(=O)c1[nH]c2c(c1C)C(=O)CC(c1cc(OC)ccc1OC)C2 (stereo unspecified)"
reportedmeasurement = "51.9%"

[[record]]
compound = "CC(=O)Nc1cccc(NC(=O)c2ccco2)c1"
reportedmeasurement = "91.6%"

[[record]]
compound = "COC(=O)c1cc(-c2ccccc2)sc1NC(=O)c1cc(C)on1"
reportedmeasurement = "90.8%"

[[record]]
compound = "CC1CCCCN1CCNC(=O)C1CCN(S(=O)(=O)c2cccc3cccnc23)CC1 (stereo unspecified)"
reportedmeasurement = "95.8%"

[[record]]
compound = "COc1ccc(-c2[nH]c(-c3cccc(OC)c3)nc2SCC(=O)NCc2ccco2)cc1"
reportedmeasurement = "73.4%"

[[record]]
compound = "CC1(C)NC(=O)N(CC(O)COc2cccc(F)c2)C1=O (stereo unspecified)"
reportedmeasurement = "99.8%"

[[record]]
compound = "COC(=O)CN(c1ccc(OC)cc1)S(=O)(=O)c1ccc(OC)c(OC)c1"
reportedmeasurement = "85.3%"

[[record]]
compound = "CC(CCC(=O)Nc1nncs1)C(=O)O (stereo unspecified)"
reportedmeasurement = "86.6%"

[[record]]
compound = "COc1ccc(OC)c(NC(=O)c2cn(C)c(=O)c3cc(OC)c(OC)cc23)c1"
reportedmeasurement = "88.1%"

[[record]]
compound = "Cn1c(C(=O)NCC2CCCO2)cc2c(=O)n(C)c3ccccc3c21 (stereo unspecified)"
reportedmeasurement = "75.1%"


* * *

- assay: S. cerevisiae growth inhibition in restrictive medium, OD615, pilot screen, restrictive growth control, yeast lifespan reduction project (AID 706);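 also: modified DeaD lifespan yeast strain shifted to restrictive glucose medium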
- conditionLabel: OD615, 48 h, at 10 µM, stronger effect = higher value
Please enter condition met where growth inhibition is greater than or equal to -10%, and condition not met where it is lower.

[[record]]
structure = "COc1ccccc1Oc1ccc(S(=O)(=O)N2CCOCC2)cc1S(=O)(=O)N1CCOCC1"
discretelabel = "condition not met"

[[record]]
structure = "Cc1ccc(Cn2c(CN3CCOCC3)nc3c2c(=O)n(C)c(=O)n3C)cc1"
discretelabel = "condition met"

[[record]]
structure = "CCCSc1nnc2nc3c(nn12)c1ccccc1n3C"
discretelabel = "condition met"

[[record]]
structure = "CCn1c(-c2cc(Br)ccc2O)n[nH]c1=S"
discretelabel = "condition not met"

[[record]]
structure = "CCOC(=O)c1cc2c(=O)n3ccccc3nc2n(CC(C)C)c1=NC(=O)c1ccco1"
discretelabel = "condition met"


* * *

viability values, listed per item
- assay: MRP1 drug-resistance reversers in H69AR cells – cell-based, doxorubicin co-treatment, pilot screen (AID 601)
- conditionLabel: H69AR cells, CellTiter-Glo, 72 h; compound alone cytotoxicity; at 10 µM
experimentalEndpoint: viability (%)

[[record]]
compound = "CC(O)CN1C(=O)C(CC(=O)Nc2ccc(Cl)cc2)SC1=Nc1ccccc1 (stereo unspecified)"
experimentalendpoint = "viability"
unitdescriptor = "%"
reportedmeasurement = 66.4

[[record]]
compound = "Cc1ccc(S(=O)(=O)C(C#N)c2nc3ccccc3nc2N2CCCCC2)cc1 (stereo unspecified)"
experimentalendpoint = "viability"
unitdescriptor = "%"
reportedmeasurement = 92

[[record]]
compound = "COc1cccc(-c2cc(C(=O)N3CCCCCC3)no2)c1"
experimentalendpoint = "viability"
unitdescriptor = "%"
reportedmeasurement = 85.9

[[record]]
compound = "CCOC(=O)C1CCCN(C(=O)c2cn(C)c(=O)c3cc(OC)c(OC)cc23)C1 (stereo unspecified)"
experimentalendpoint = "viability"
unitdescriptor = "%"
reportedmeasurement = 91

[[record]]
compound = "CC(=O)OCCNc1cc(N2CCN(C)CC2)c2noc3c2c1C(=O)c1ccccc1-3"
experimentalendpoint = "viability"
unitdescriptor = "%"
reportedmeasurement = 66.9

[[record]]
compound = "CCOC(=O)c1[nH]c(C)c(C(=O)Nc2ccc(Cl)cc2)c1C"
experimentalendpoint = "viability"
unitdescriptor = "%"
reportedmeasurement = 85.9

[[record]]
compound = "CCOCCn1c(CN2CCN(CC)CC2)nc2c1c(=O)n(C)c(=O)n2C"
experimentalendpoint = "viability"
unitdescriptor = "%"
reportedmeasurement = 91.8

[[record]]
compound = "Oc1ccc(Cl)cc1-c1cc(-c2ccccc2)n[nH]1"
experimentalendpoint = "viability"
unitdescriptor = "%"
reportedmeasurement = 6.37

[[record]]
compound = "O=C(Nc1cnccn1)c1cccs1"
experimentalendpoint = "viability"
unitdescriptor = "%"
reportedmeasurement = 99

[[record]]
compound = "CCCN1CCN(C(=O)c2cn(CC(C)C)c(=O)c3cc(OC)c(OC)cc23)CC1"
experimentalendpoint = "viability"
unitdescriptor = "%"
reportedmeasurement = 78

[[record]]
compound = "Cc1cc(NC(=O)CS(=O)(=O)c2cn(Cc3ccccc3Cl)c3ccccc23)no1"
experimentalendpoint = "viability"
unitdescriptor = "%"
reportedmeasurement = 92.1

